Quick list: Emax at 30 µM per entry.
biological target: human mAChR M4 (Homo sapiens, UniProt P08173); construct: expressed in transfected cells; host or cells: CHO-K1 (ATCC), stably expressing hM4 and Gqi5; assay: mAChR M4 cell-based functional assay: calcium flux (Fluo-4, FDSS), positive allosteric modulator activity on the EC20 acetylcholine response, hM4-Gqi5 CHO-K1 cells; settings: CHO-K1, human M4; % ACh maximum at 30 μM
Sequence (P08173 whole entry): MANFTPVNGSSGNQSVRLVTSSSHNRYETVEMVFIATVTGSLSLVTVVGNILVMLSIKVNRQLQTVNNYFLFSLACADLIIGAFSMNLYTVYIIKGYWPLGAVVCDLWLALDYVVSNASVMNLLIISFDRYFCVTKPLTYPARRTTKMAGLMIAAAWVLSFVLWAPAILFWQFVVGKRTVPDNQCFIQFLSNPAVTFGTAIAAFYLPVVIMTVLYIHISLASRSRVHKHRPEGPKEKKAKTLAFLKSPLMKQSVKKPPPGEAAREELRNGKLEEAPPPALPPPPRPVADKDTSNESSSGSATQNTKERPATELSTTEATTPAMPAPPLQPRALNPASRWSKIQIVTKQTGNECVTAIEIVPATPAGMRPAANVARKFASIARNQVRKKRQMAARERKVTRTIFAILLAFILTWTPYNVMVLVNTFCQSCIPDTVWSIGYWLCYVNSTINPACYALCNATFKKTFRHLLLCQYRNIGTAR
Number first, unit second: that is the form wanted.

I'm curious: which Emax at 30 µM was measured for `Clc1nc(N2CCc3ncc(-c4cnn(C5CC5)c4)cc3C2)c2cccnc2n1` tested on human mAChR M4 (Homo sapiens, UniProt P08173)? 53%

I'm curious: which Emax at 30 µM was measured for CC1CN(c2ncnc3ccc(F)cc23)Cc2cc(N3C(=O)COc4ccccc43)cnc21 (stereo not drawn) tested on human mAChR M4 (Homo sapiens, UniProt P08173)? 75%

I'm curious: which Emax at 30 µM was measured for `Cc1ccc(-c2cnc3c(c2)CN(c2nc(C)nc4ccc(F)cc24)CC3)cn1` tested on human mAChR M4 (Homo sapiens, UniProt P08173)? 102%

I'm curious: which Emax at 30 µM was measured for `CC(C)(O)CNc1nc(N2CCc3ncc(N4CCCn5nccc54)cc3C2)c2cccnc2n1` tested on human mAChR M4 (Homo sapiens, UniProt P08173)? 80%

I'm curious: which Emax at 30 µM was measured for `Cc1noc(C)c1-c1cnc2c(c1)CN(c1nc(Cl)nc3ccc(F)cc13)CC2` tested on human mAChR M4 (Homo sapiens, UniProt P08173)? 97%

Others:
I'm curious: which Emax at 30 µM was measured for `Cc1nc(N2CCc3ncc(-c4ccc(C5CC5)nc4)cc3C2)c2cc(Cl)ccc2n1` tested on human mAChR M4 (Homo sapiens, UniProt P08173)? 83%

I'm curious: which Emax at 30 µM was measured for `Cc1nc(N2CCc3ncc(C(F)(F)F)cc3C2)c2cc(F)c(C)cc2n1` tested on human mAChR M4 (Homo sapiens, UniProt P08173)? 81%

I'm curious: which Emax at 30 µM was measured for `Clc1ccc2ncnc(N3CCc4ncc(-c5ccc(C6CC6)nc5)cc4C3)c2c1` tested on human mAChR M4 (Homo sapiens, UniProt P08173)? 72%

I'm curious: which Emax at 30 µM was measured for `Fc1cc2c(N3CCc4ncc(N5CCCn6nccc65)cc4C3)nc(Cl)nc2cc1Cl` tested on human mAChR M4 (Homo sapiens, UniProt P08173)? 80%

I'm curious: which Emax at 30 µM was measured for `FC(F)(F)c1cnc2c(c1)CN(c1nc(Cl)nc3ccc(C(F)(F)F)cc13)CC2` tested on human mAChR M4 (Homo sapiens, UniProt P08173)? 91%

I'm curious: which Emax at 30 µM was measured for `Cc1nn(C)cc1-c1cnc2c(c1)CN(c1nc(C3CC3)nc3ccc(F)cc13)CC2` tested on human mAChR M4 (Homo sapiens, UniProt P08173)? 85%

I'm curious: which Emax at 30 µM was measured for `Cn1nccc1-c1cnc2c(c1)CN(c1ncnc3cc(F)c(F)cc13)CC2` tested on human mAChR M4 (Homo sapiens, UniProt P08173)? 73%

I'm curious: which Emax at 30 µM was measured for `Cc1ccc(F)c(Oc2cnc3c(c2)CN(c2nc(C)nc4ccc(Cl)cc24)CC3)c1` tested on human mAChR M4 (Homo sapiens, UniProt P08173)? 62%

I'm curious: which Emax at 30 µM was measured for `Fc1ccc2nc(Nc3ccccc3F)nc(N3CCc4ncc(C(F)(F)F)cc4C3)c2c1` tested on human mAChR M4 (Homo sapiens, UniProt P08173)? 63%

I'm curious: which Emax at 30 µM was measured for `Cc1nc(N2CCc3ncc(N4CCCn5nccc54)cc3C2)c2cc(F)ccc2n1` tested on human mAChR M4 (Homo sapiens, UniProt P08173)? 97%

I'm curious: which Emax at 30 µM was measured for `Cc1ccc(-c2cnc3c(c2)CN(c2nc(C)nc4ccc(C(F)(F)F)cc24)CC3)cn1` tested on human mAChR M4 (Homo sapiens, UniProt P08173)? 45%

I'm curious: which Emax at 30 µM was measured for `Cc1ncc(-c2cnc3c(c2)CN(c2ncnc4ccc(Cl)cc24)CC3)s1` tested on human mAChR M4 (Homo sapiens, UniProt P08173)? 79%

I'm curious: which Emax at 30 µM was measured for `COc1ccc2ncnc(N3CCc4ncc(N5CCOc6ncccc65)cc4C3)c2c1` tested on human mAChR M4 (Homo sapiens, UniProt P08173)? 105%

###

molecular target: human mAChR M4 (Homo sapiens, UniProt P08173); construct: expressed in transfected cells; host or cells: CHO-K1 (ATCC), stably expressing hM4 and Gqi5; assay: mAChR M4 cell-based functional assay: calcium flux (Fluo-4, FDSS), positive allosteric modulator activity on the EC20 acetylcholine response, hM4-Gqi5 CHO-K1 cells; conditions: human M4; PAM activity on EC20 acetylcholine response, calcium flux; read-out: Human M4 EC50
Rule: EC50 below 600 nM gives Y, anything at or above gives N.

Please review the entries below; each comes with its answer.
Determine whether this compound shows EC50 lower than 600 nM (ties excluded): `COc1ccc2ncnc(N3CCc4ncc(-c5cn(C)nc5C)cc4C3)c2c1` Y

Determine whether this compound shows EC50 lower than 600 nM (ties excluded): `Cc1ccc2nc(C3CC3)nc(N3CCc4ncc(-c5cnn(C6CC6)c5)cc4C3)c2c1` Y

Determine whether this compound shows EC50 lower than 600 nM (ties excluded): `Fc1cc2ncnc(N3CCc4ncc(C(F)(F)F)cc4C3)c2cc1F` Y

Others:
Determine whether this compound shows EC50 lower than 600 nM (ties excluded): `Cn1nccc1Nc1cnc2c(c1)CN(c1nc(N3CCOC(C)(C)C3)nc3ccc(F)cc13)CC2` N

Determine whether this compound shows EC50 lower than 600 nM (ties excluded): `Cc1ccc2nc(Nc3ccnn3C)nc(N3CCc4ncc(C(F)(F)F)cc4C3)c2c1` Y

Determine whether this compound shows EC50 lower than 600 nM (ties excluded): `Fc1ccc2nc(C3CC3)nc(N3CCc4ncc(C(F)(F)F)cc4C3)c2c1` N

Determine whether this compound shows EC50 lower than 600 nM (ties excluded): `Cc1ccc2c(N3CCc4ncc(C(F)(F)F)cc4C3)nc(C)nc2c1` N

Determine whether this compound shows EC50 lower than 600 nM (ties excluded): `Fc1ccc2ncnc(N3CCc4ncc(C(F)(F)F)cc4C3)c2c1` Y

Determine whether this compound shows EC50 lower than 600 nM (ties excluded): `Cc1nc(N2CCc3ncc(-c4ccnn4C)cc3C2)c2cc(Cl)ccc2n1` Y

Determine whether this compound shows EC50 lower than 600 nM (ties excluded): `Cc1nc(N2CCc3ncc(C(F)(F)F)cc3C2)c2cc(C3CC3)ccc2n1` N

Determine whether this compound shows EC50 lower than 600 nM (ties excluded): `[2H]C1([2H])N(c2cnc3c(c2)CN(c2ncnc4cc(F)c(F)cc24)CC3)c2ccnn2C([2H])([2H])C1([2H])[2H]` Y

Determine whether this compound shows EC50 lower than 600 nM (ties excluded): `Cc1ccccc1-c1cnc2c(c1)CN(c1ncnc3ccc(F)cc13)CC2` N

Determine whether this compound shows EC50 lower than 600 nM (ties excluded): `COc1cc2c(N3CCc4ncc(-c5cn(C)nc5C)cc4C3)nc(Cl)nc2cc1F` Y

Determine whether this compound shows EC50 lower than 600 nM (ties excluded): `CC(C)(O)CNc1nc(N2CCc3ncc(C(F)(F)F)cc3C2)c2cc(F)ccc2n1` Y

###

Biological target: human mAChR M4 (Homo sapiens, UniProt P08173)
Construct: expressed in transfected cells; host or cells: CHO-K1 (ATCC), stably expressing hM4 and Gqi5
Experiment: mAChR M4 cell-based functional assay: calcium flux (Fluo-4, FDSS), positive allosteric modulator activity on the EC20 acetylcholine response, hM4-Gqi5 CHO-K1 cells
Conditions: CHO-K1, human M4; % ACh maximum at 30 μM
Experimental: […] Calcium flux was measured using the Functional Drug Screening System (FDSS) 6000 or 7000 (Hamamatsu Corporation, Tokyo, Japan) as an increase in the fluorescent static ratio. […] Agonist activity was analyzed as a concentration-dependent increase in calcium mobilization upon compound addition. Positive allosteric modulator activity was analyzed as a concentration-dependent increase in the EC20 acetylcholine response. […]
Criterion: Emax at 30 µM meeting or surpassing 80%. Met: y. Not met: n.

Please review the entries below; each comes with its answer.
Say whether `Cc1nc(N2CCc3ncc(-c4ccc(N(C)C)nc4)cc3C2)c2cc(F)ccc2n1` shows Emax at 30 µM of 80% or more. y

Say whether `Cc1ccc2nc(C)nc(N3CCc4ncc(-c5ccccc5C)cc4C3)c2c1` shows Emax at 30 µM of 80% or more. y

Say whether CC1CN(c2cnc3c(c2)CN(c2ncnc4ccc(F)cc24)CC3)c2ccnn2C1 (stereo not shown) shows Emax at 30 µM of 80% or more. y

Say whether `Clc1ccc2nc(Cl)nc(N3CCc4ncc(Br)cc4C3)c2c1` shows Emax at 30 µM of 80% or more. y

Say whether `Cc1ccc2nc(C3CC3)nc(N3CCc4ncc(-c5cnn(C6CC6)c5)cc4C3)c2c1` shows Emax at 30 µM of 80% or more. n

Say whether `Cc1nc(N2CCc3ncc(-c4c(C)noc4C)cc3C2)c2cc(Cl)ccc2n1` shows Emax at 30 µM of 80% or more. y

Others:
Say whether CC1CN(c2ncnc3ccc(F)cc23)Cc2cc(N3CCOCC3)cnc21 (stereo not shown) shows Emax at 30 µM of 80% or more. y

Say whether `Fc1ccc2nc(C(F)(F)F)nc(N3CCc4ncc(N5CCOc6ncccc65)cc4C3)c2c1` shows Emax at 30 µM of 80% or more. y

Say whether `Cc1ccc2nc(C3CC3)nc(N3CCc4ncc(-c5cn(C)nc5C)cc4C3)c2c1` shows Emax at 30 µM of 80% or more. n

Say whether `Cc1nn(C)cc1-c1cnc2c(c1)CN(c1ncnc3ccc(F)cc13)CC2` shows Emax at 30 µM of 80% or more. y

Say whether `COc1ccc2ncnc(N3CCc4ncc(C(F)(F)F)cc4C3)c2c1` shows Emax at 30 µM of 80% or more. y

Say whether `Cc1ccc2nc(Nc3ccnn3C)nc(N3CCc4ncc(Nc5ccnn5C)cc4C3)c2c1` shows Emax at 30 µM of 80% or more. y

Say whether `Cc1nc(N2CCc3ncc(Nc4cccnc4F)cc3C2)c2cc(F)ccc2n1` shows Emax at 30 µM of 80% or more. y

Say whether `COc1ccc2nc(C)nc(N3CCc4ncc(C(F)(F)F)cc4C3)c2c1` shows Emax at 30 µM of 80% or more. n

Say whether `Cc1nc(N2CCc3ncc(N4CCO[C@@H](c5ccccc5)C4)cc3C2)c2cc(F)ccc2n1` shows Emax at 30 µM of 80% or more. n

Say whether `Fc1ccc2ncnc(N3CCc4ncc(-c5ccc(C6CC6)nc5)cc4C3)c2c1` shows Emax at 30 µM of 80% or more. y

Say whether `Cn1nccc1Nc1cnc2c(c1)CN(c1nc(N3CCOCC3)nc3ccc(F)cc13)CC2` shows Emax at 30 µM of 80% or more. y

Say whether `COc1cc2c(N3CCc4ncc(C(F)(F)F)cc4C3)nc(Cl)nc2cc1F` shows Emax at 30 µM of 80% or more. n

Say whether `[2H]C1([2H])N(c2cnc3c(c2)CN(c2ncnc4cc(F)c(F)cc24)CC3)c2ccnn2C([2H])([2H])C1([2H])[2H]` shows Emax at 30 µM of 80% or more. y

Say whether `Cc1ccc2nc(C)nc(N3CCc4ncc(-c5cnc(C)s5)cc4C3)c2c1` shows Emax at 30 µM of 80% or more. y

Say whether `Clc1ccc2ncnc(N3CCc4ncc(N5CCOc6ncccc65)cc4C3)c2c1` shows Emax at 30 µM of 80% or more. y

Say whether `Cc1ccc(-c2cnc3c(c2)CN(c2nc(C)nc4ccc(Cl)cc24)CC3)cn1` shows Emax at 30 µM of 80% or more. y

Say whether `Fc1ccc2nc(Cl)nc(N3CCc4ncc(C(F)(F)F)cc4C3)c2c1` shows Emax at 30 µM of 80% or more. y

Say whether `Fc1cc2c(N3CCc4ncc(C(F)(F)F)cc4C3)nc(Cl)nc2cc1Cl` shows Emax at 30 µM of 80% or more. n
